# Tested on: PAMPA
# Reported conditions: Papp (x 10^-6 cm/s) / experiment 9; UV detection
Metric: Papp (×10⁻⁶ cm/s)
Quick reminder: number only, in ×10⁻⁶ cm/s, skip the unit.

Task: # input compound: CCCCC[C@H](OC(=O)[C@@H](C)N(C)C(=O)[C@H](CCCCC)OC(=O)[C@@H](C)N(C)C(=O)[C@H](CCCCC)OC(=O)[C@@H](C)N(C)C(=O)OC(C)(C)C)C(=O)OCc1ccccc1 ; wanted: its Papp
Result: 3.83

Task: Which measured Papp value corresponds to CCCCC[C@H](OC(=O)[C@@H](C)N(C)C(=O)OC(C)(C)C)C(=O)OCc1ccccc1 ?
Result: 5.45

Task: Report Papp for CCCCC[C@H](OC(=O)[C@@H](C)N(C)C(=O)[C@H](CCCCC)OC(=O)[C@@H](C)N(C)C(=O)OC(C)(C)C)C(=O)OCc1ccccc1 please.
Result: 3.7

Task: Entry under review: CCCCC[C@H](OC(=O)[C@@H](C)N(C)C(=O)[C@H](CCCCC)OC(=O)[C@@H](C)N(C)C(=O)[C@H](CCCCC)OC(=O)[C@@H](C)N(C)C(=O)[C@H](CCCCC)OC(=O)[C@@H](C)N(C)C(=O)OC(C)(C)C)C(=O)OCc1ccccc1 . Reported Papp?
Result: 2.15

Task: Request the reported Papp associated with CCCCC[C@H](OC(=O)[C@@H](C)N(C)C(=O)[C@H](CCCCC)OC(=O)[C@@H](C)N(C)C(=O)[C@H](CCCCC)OC(=O)[C@@H](C)N(C)C(=O)[C@H](CCCCC)OC(=O)[C@@H](C)N(C)C(=O)[C@H](CCCCC)OC(=O)[C@@H](C)N(C)C(=O)OC(C)(C)C)C(=O)OCc1ccccc1
Result: 1.89

* * *

# Tested on: PAMPA
# Reported conditions: Papp (x 10^-6 cm/s) – ELSD Detection / [row 17]; ELSD Detection
Metric: Papp

Task: Which Papp value is on record for CCCCC[C@@H]1OC(=O)[C@@H](C)N(C)C(=O)[C@H](CCCCC)OC(=O)[C@@H](C)N(C)C(=O)[C@H](CCCCC)OC(=O)[C@@H](C)N(C)C(=O)[C@H](CCCCC)OC(=O)[C@@H](C)N(C)C1=O [Compound C1.4, ent-verticilide] ?
Result: 5.46 ×10⁻⁶ cm/s

* * *

# Test system: PAMPA
# Reported conditions: Papp (x 10^-6 cm/s) / [row 3]; UV detection
Starred links: 1 amine or outer side, 2 acyl side, 3 side chain; linkers in the order of their positions; H or OH if unused. Non-standard residues stand in square brackets, D forms with d. Residues, ends and D or L forms follow the SMILES beside them. *: point of attachment. X2 = CCCCC[C@H](O*)C(=O)OCc1ccccc1; X1 = CCCCC[C@H](O[*:1])C(=O)[*:2]; Ahp(2) = CCCCC[C@H](N)C(=O)O; dNMeA = CN[C@H](C)C(=O)O; Boc = CC(C)(C)OC(=O)*; OBn = c1ccc(CO*)cc1
Kindly return Yes if reported Papp is no lower than 3 ×10⁻⁶ cm/s; return No if it is lower.

Task: Has CCCCC[C@H](NC(=O)[C@@H](C)N(C)C(=O)OC(C)(C)C)C(=O)N(C)[C@H](C)C(=O)O[C@@H](CCCCC)C(=O)N(C)[C@H](C)C(=O)O[C@@H](CCCCC)C(=O)N(C)[C@H](C)C(=O)O[C@@H](CCCCC)C(=O)OCc1ccccc1 [Compound L2.1] (Boc-[dNMeA][Ahp(2)][dNMeA][X1][dNMeA][X1][dNMeA]-X2) a recorded Papp greater than or equal to 3 ×10⁻⁶ cm/s?
Result: Yes

Task: Threshold query (Papp >= 3 ×10⁻⁶ cm/s) on CCCCC[C@H](OC(=O)[C@@H](C)N(C)C(=O)[C@H](CCCCC)OC(=O)[C@@H](C)N(C)C(=O)[C@H](CCCCC)OC(=O)[C@@H](C)N(C)C(=O)[C@H](CCCCC)OC(=O)[C@@H](C)N(C)C(=O)OC(C)(C)C)C(=O)OCc1ccccc1 [Compound L1.4]
Result: No

Task: Please tell me: is the compound CCCCC[C@H](NC(=O)[C@@H](C)N(C)C(=O)OC(C)(C)C)C(=O)N(C)[C@H](C)C(=O)N[C@H](CCCCC)C(=O)N(C)[C@H](C)C(=O)O[C@@H](CCCCC)C(=O)N(C)[C@H](C)C(=O)O[C@@H](CCCCC)C(=O)OCc1ccccc1 (stereo in doubt) [Compound L2.2] at or over 3 ×10⁻⁶ cm/s in terms of Papp?
Result: Yes

Task: Item CCCCC[C@H](NC(=O)[C@@H](C)N(C)C(=O)[C@H](CCCCC)OC(=O)[C@@H](C)N(C)C(=O)[C@H](CCCCC)NC(=O)[C@@H](C)N(C)C(=O)[C@H](CCCCC)OC(=O)[C@@H](C)N(C)C(=O)OC(C)(C)C)C(=O)OCc1ccccc1 [Compound L2.3] (Boc-[dNMeA][X1][dNMeA][Ahp(2)][dNMeA][X1][dNMeA][Ahp(2)]-OBn) with Papp of 3 ×10⁻⁶ cm/s or above?
Result: Yes

Task: Hi team, for CCCCC[C@H](NC(=O)[C@@H](C)N(C)C(=O)[C@H](CCCCC)NC(=O)[C@@H](C)N(C)C(=O)[C@H](CCCCC)NC(=O)[C@@H](C)N(C)C(=O)[C@H](CCCCC)NC(=O)[C@@H](C)N(C)C(=O)OC(C)(C)C)C(=O)OCc1ccccc1 [Compound L2.5] (Boc-[dNMeA][Ahp(2)][dNMeA][Ahp(2)][dNMeA][Ahp(2)][dNMeA][Ahp(2)]-OBn) , is the recorded Papp at or above 3 ×10⁻⁶ cm/s?
Result: No
